Molecular target: human glucagon receptor (human, UniProt P47871 26-477)
Sequence (P47871 26-477): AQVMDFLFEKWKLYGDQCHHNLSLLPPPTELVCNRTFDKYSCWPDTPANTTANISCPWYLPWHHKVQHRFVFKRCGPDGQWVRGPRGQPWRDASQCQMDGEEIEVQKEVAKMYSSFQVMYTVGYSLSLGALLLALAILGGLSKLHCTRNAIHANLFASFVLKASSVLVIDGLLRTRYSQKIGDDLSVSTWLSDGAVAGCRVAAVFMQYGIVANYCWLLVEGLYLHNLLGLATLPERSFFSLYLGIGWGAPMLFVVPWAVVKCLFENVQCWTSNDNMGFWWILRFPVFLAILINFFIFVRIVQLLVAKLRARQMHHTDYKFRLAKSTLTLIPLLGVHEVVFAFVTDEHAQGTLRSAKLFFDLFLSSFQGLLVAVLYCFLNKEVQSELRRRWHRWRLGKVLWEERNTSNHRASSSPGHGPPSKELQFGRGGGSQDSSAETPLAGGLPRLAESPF
Assay: cell-based or functional assay
Starred links: 1 amine or outer side, 2 acyl side, 3 side chain; linkers in the order of their positions; H or OH if unused. Non-standard residues stand in square brackets, D forms with d. Groups on a side chain read outwards from the residue. No end group written: not given here. *: point of attachment. C18 diacid = O=C(O)CCCCCCCCCCCCCCCCC(=O)*; γGlu = O=C(O)[C@H](CCC(=O)[*:2])N[*:1]; Ac4c = NC1(C(=O)O)CCC1; AEEA = NCCOCCOCC(=O)O; Aib = CC(C)(N)C(=O)O
readout_type: GlucagonR EC50 (pM), [Assay (I)(b)], CRE luciferase reporter, BHK cells

Known GlucagonR EC50 (pM), [Assay (I)(b)], CRE luciferase reporter, BHK cells results, listed for orientation:
H[Ac4c]QGTFTSDLSKYLESRRAREFVQWLIK([γGlu-γGlu-AEEA-AEEA-γGlu-γGlu-C18 diacid])T-NH2 (also called Chem. 13; Chem 13): 23
H[Ac4c]QGTFTSDLSKYLESRRAREFVQWLIK([Gly-Ser-Glu-Gly-Ser-γGlu-γGlu-C18 diacid])T-NH2 (also called Chem. 16; Chem 16): 13
H[Aib]QGTFTSDLSKYLDARRARDFVQWLIK([γGlu-γGlu-γGlu-C18 diacid])T-NH2 (also called Chem. 15; Chem 15): 7
HXQGTFTSDYSRYLESRRARDFVQWLIKT (Aib at position 2; epsilon-N of Lys28 acylated with the substituent given in the name (17-carboxyheptadecanoyl-2xgGlu-Ado-gGlu-Ado-gGlu-Ado-gGlu-); C-terminal amide, also called Chem. 37; Chem 37): 98

(I) H[Ac4c]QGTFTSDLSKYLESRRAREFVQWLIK([AEEA-AEEA-γGlu-γGlu-C18 diacid])T-NH2 (also called Chem. 18; Chem 18)
(II) H[Aib]QGTFTSDLSRYLDARRARDFVQWLIK([γGlu-γGlu-γGlu-C18 diacid])T-NH2 (also called Chem. 14; Chem 14)
Inquiry: Lab note: check whether I or II shows the higher recorded GlucagonR EC50 (pM), [Assay (I)(b)], CRE luciferase reporter, BHK cells. Pick one; state its label.
Reply text: I
(I: 32 pM, II: 9 pM)
